# experimental.details: Brain (striatum) exposure levels after oral dosing, LC/MS/MS
# Format: in vivo
# measurement.parameters: male, Sprague Dawley (Harlan), 0.3 mg/kg, rat striatum, oral dose .3 mg/kg

# compound, concentration at 5.5 h [ng/g]
data = [
    ("Cc1cc(C)cc([C@@H]2CCCN2Cc2ccc(Oc3ccc(C(N)=O)cc3F)cc2)c1 (single isomer, unassigned)", 7.23),
]

* * *

# experimental.details: Plasma exposure after oral dosing, LC/MS/MS
# Format: in vivo
# measurement.parameters: male, Sprague Dawley (Harlan), 30 mg/kg; rat plasma, oral dose 30; read-out: Plasma Levels

# molecule, concentration at 5.5 h / ng/g
rows = [
    ("Cc1cc(C)cc([C@@H]2CCCN2Cc2ccc(Oc3ccc(C(N)=O)cc3F)cc2)c1 (single isomer, unassigned)", 106),
]

* * *

# experimental.details: Brain (striatum) exposure levels after oral dosing, LC/MS/MS
# Type: in vivo
# measurement.parameters: male, Sprague Dawley (Harlan), 0.1 mg/kg, rat striatum, oral dose .1 mg/kg
# Method: Male Harlan Sprague Dawley rats are treated with the compound of Example 1A of the present invention using a 3% lactic acid/water oral formulation at doses of […], 0.3, 1, 3, 10 and 30 mg/kg. […] Exposure levels of the compound of Example 1A in the rat striatum following administration were determined in the same samples used to quantify the level of opioid receptor occupancy. […]
measured.parameter: concentration at 5.5 h (ng/g)

# compound, recorded.number
rows = [
    ("Cc1cc(C)cc([C@@H]2CCCN2Cc2ccc(Oc3ccc(C(N)=O)cc3F)cc2)c1 (single isomer, unassigned)", 15.3),
]

* * *

# experimental.details: Plasma exposure after oral dosing, LC/MS/MS
# Format: in vivo
# measurement.parameters: male, Sprague Dawley (Harlan), 3 mg/kg; rat plasma, oral dose 3; read-out: Plasma Levels

# molecule, unit.tag, concentration at 5.5 h
rows = [
    ("Cc1cc(C)cc([C@@H]2CCCN2Cc2ccc(Oc3ccc(C(N)=O)cc3F)cc2)c1 (single isomer, unassigned) [Example 1A]", "ng/g", 15.4),
]

* * *

# experimental.details: Plasma exposure after oral dosing, LC/MS/MS
# Assay type: in vivo
# measurement.parameters: male, Sprague Dawley (Harlan), 0.3 mg/kg; rat plasma, oral dose .3; read-out: Plasma Levels

# molecule, unit.tag, concentration at 5.5 h
records = [
    ("Cc1cc(C)cc([C@@H]2CCCN2Cc2ccc(Oc3ccc(C(N)=O)cc3F)cc2)c1 (single isomer, unassigned)", "ng/g", 2.27),
]
